Test system: SH-SY5Y
Experiment: Cytotoxicity against human SH-SY5Y cells assessed as reduction in cell viability at 1 mM measured after 1 day by alamar blue assay
Format: cell-based
Conditions: 24 h, 1000 µM

| compound | Activity |
| --- | --- |
| N[C@@H]1[C@@H](O)[C@H](O)[C@@H](COP(=O)(O)O)O[C@H]1O | Non-Toxic |
| N[C@@H]1[C@@H](O)[C@H](O)[C@@H](COS(=O)(=O)O)O[C@H]1O | Non-Toxic |
| N[C@@H]1[C@@H](O)[C@H](O)[C@@H](CO)O[C@H]1O | Non-Toxic |
| CC(=O)N[C@H]1C(O)O[C@H](CO)[C@@H](O)[C@@H]1O (some centres undefined) | Non-Toxic |

---

Target: UniProt:P05067
Sequence (P05067 whole entry): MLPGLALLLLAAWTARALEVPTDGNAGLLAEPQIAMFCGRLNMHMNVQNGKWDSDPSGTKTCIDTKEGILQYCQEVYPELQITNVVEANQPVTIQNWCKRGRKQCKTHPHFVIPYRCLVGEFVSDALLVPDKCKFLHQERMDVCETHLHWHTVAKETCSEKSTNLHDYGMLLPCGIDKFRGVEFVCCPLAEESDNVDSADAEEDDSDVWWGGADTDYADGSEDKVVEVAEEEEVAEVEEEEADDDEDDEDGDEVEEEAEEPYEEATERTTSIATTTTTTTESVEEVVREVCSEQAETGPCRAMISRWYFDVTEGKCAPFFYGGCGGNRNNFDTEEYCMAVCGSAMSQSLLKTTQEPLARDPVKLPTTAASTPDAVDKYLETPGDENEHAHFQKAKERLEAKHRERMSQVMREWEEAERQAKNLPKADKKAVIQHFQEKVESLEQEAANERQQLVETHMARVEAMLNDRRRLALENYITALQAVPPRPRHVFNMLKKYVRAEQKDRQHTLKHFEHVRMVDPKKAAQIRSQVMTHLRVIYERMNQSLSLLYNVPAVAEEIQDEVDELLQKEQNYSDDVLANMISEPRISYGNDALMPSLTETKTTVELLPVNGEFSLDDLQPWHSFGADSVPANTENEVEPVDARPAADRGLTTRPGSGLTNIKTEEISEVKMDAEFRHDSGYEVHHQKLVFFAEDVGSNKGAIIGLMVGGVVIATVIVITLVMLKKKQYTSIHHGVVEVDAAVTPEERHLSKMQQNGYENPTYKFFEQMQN
Experiment: Modulation of human amyloid beta (1 to 42) supramolecular organization assessed as reduction in antiparallel beta-sheets characteristic of cytotoxic Abeta42 aggregates at 1 mM measured for 5 days by CD spectrometry
Settings: filed as modulator, time 5.0 day
Active and inactive are the calls of the source. No cut-off for these calls is given here.

| compound | target_entity | Activity |
| --- | --- | --- |
| N[C@@H]1[C@@H](O)[C@H](O)[C@@H](COS(=O)(=O)O)O[C@H]1O | UniProt:P05067 | Active |
| CC(=O)N[C@H]1C(O)O[C@H](CO)[C@@H](O)[C@@H]1O (some centres undefined) | UniProt:P05067 | Active |
| N[C@@H]1[C@@H](O)[C@H](O)[C@@H](COP(=O)(O)O)O[C@H]1O | UniProt:P05067 | Active |
| N[C@@H]1[C@@H](O)[C@H](O)[C@@H](CO)O[C@H]1O | UniProt:P05067 | Active |
